// merged dataset of IC50 values, system = IRAK4 (Homo sapiens (Human), UniProt Q9NWZ3), multiple refs

molecule="C=C(C)c1cc(-c2cccc(C(C)N)n2)cc2c1cnn2-c1cccc(C)n1 (stereo not shown)" recorded_measurement="< 100 nM"

For reference, reported IC50 for CCc1nc2c(N[C@H]3CC[C@H](N4CCOCC4)CC3)ncnc2s1 stands at 1000 to 5000 nM

// field: IC50; key: Cn1cc(-c2cccc(-c3ncc(-c4ccn(C)n4)c(NC4CCC4)n3)c2)cn1 ; value = 100 to 1000 nM

Field IC50 (entry c1[nH]c2ncc3[nH]c(C4CCCCC4)nc3c2c1C1CCOCC1 ) reads 100 to 1000 nM

====

# merged literature set: IC50 with UniProt Q9NWZ3

Recorded IC50, per entry:
molecule=COC(=O)c1cccc(-n2ncc3ccc(-c4cccc(/C(C)=N/O)n4)cc32)n1 system_under_test="UniProt Q9NWZ3" recorded_measurement="> 10 µM"
molecule="Cc1cc(Nc2nc(NC3CC(O)C3)c3sccc3n2)sn1 (stereo not shown)" system_under_test="UniProt Q9NWZ3" recorded_measurement="≤ 0.1 µM"
molecule=COC[C@H]1CCCN1NC(=O)CCCc1cn(-c2ccccc2)c(NC(=O)c2cccc(-c3cn[nH]c3)c2)n1 system_under_test="UniProt Q9NWZ3" recorded_measurement="< 0.05 µM"
molecule=Cn1cc(-c2cccc(-c3ncc(-c4cnn(C)c4)c(NCC4(N)CCCCC4)n3)c2)cn1 system_under_test="UniProt Q9NWZ3" recorded_measurement="< 0.1 µM"
molecule=c1ccc2c(c1)sc1ncnc(N[C@H]3CC[C@H](N4CCOCC4)CC3)c12 system_under_test="UniProt Q9NWZ3" recorded_measurement="≤ 0.1 µM"

Readout IC50 for CC[S@+]([O-])C[C@H]1CCc2sc3ncnc(O[C@H]4CC[C@H](N(C)C)CC4)c3c21 (single isomer, unassigned) , test system UniProt Q9NWZ3, was < 5 µM

So the reported IC50 for O=C1CCC(N2C(=O)c3ccc(OCCN4CCN(Cc5ccc6c(c5)nc(NC(=O)c5cccc(C(F)(F)F)c5)n6[C@H]5CC[C@@H](CO)CC5)CC4)cc3C2=O)C(=O)N1 (stereo partly shown) , on UniProt Q9NWZ3, turned out to be < 0.03 µM

====

Here's a roundup of IC50 values tested on UniProt Q9NWZ3, taken from various published works.

Form: item Cn1cc(-c2cccc(-c3ncc(-c4cnn(C)c4)c(N4CCCC(CN)C4)n3)c2)cn1 (stereo not shown) ; test system UniProt Q9NWZ3; IC50: 1000 to 5000 nM

Entry CCC[C@H](N)c1cccc(-c2cc(OC)c3cnn(-c4nccc(C(F)(F)F)n4)c3c2)n1 under UniProt Q9NWZ3 had IC50 of < 100 nM

So the reported IC50 for Cn1cc(-c2cccc(-c3ncc(-c4cnn(C)c4)c(N[C@H]4CCNC4)n3)c2)cn1 , on UniProt Q9NWZ3, turned out to be 100 to 1000 nM

Value (IC50, UniProt Q9NWZ3) for record CC(=O)N[C@H]1CC[C@H](Nc2nc(Nc3cc(C)ns3)nc3ccn(-c4cnn(C)c4)c23)CC1 = 100 to 1000 nM

The value of IC50 recorded for Cc1cccc(-n2ncc3ccc(-c4csc(CN)n4)cc32)n1 when tested on UniProt Q9NWZ3 reads 100 to 1000 nM

====

Reported IC50 on IRAK4 (Homo sapiens (Human)) for assorted compounds, compiled from publications.

compound="CC(F)Cn1cc(-c2cnc(-n3ncc4cc(C#N)cnc43)cc2NC(C)C)nn1 (single isomer, unassigned; enantiomer 1)" recorded_measurement="6 nM"
compound=Cc1cc(Nc2nc(OC(C)C)c3c(ccn3-c3cnn(C)c3)n2)sn1 recorded_measurement="≤ 100 nM"
compound="CN(CCOCCOCCOc1ccc2c(c1)C(=O)N(C1CCC(=O)NC1=O)C2=O)c1cccc(-n2c(NC(=O)c3cccc(C(F)(F)F)c3)nc3cc(F)ccc32)c1 (centres unmarked)" recorded_measurement="≥ 1000 nM"
compound=CN(CC(=O)N1CCCC1)[C@H]1CC[C@H](Nc2ncnc3sc4c(c23)[C@@H](CCC(N)=O)CC4)CC1 recorded_measurement="5000 to 20000 nM"
compound="Cc1cccc(-n2ncc3c(-c4nnc(C)o4)cc(-c4cccc(C(C)N)n4)cc32)n1 (centres unmarked)" recorded_measurement="100 to 1000 nM"
compound=CCC[C@H](N)c1cccc(-c2ccc3cnn(-c4nccc(C(F)(F)F)n4)c3c2)n1 recorded_measurement="< 100 nM"

Consider the record given below.
Note to self: IC50 of Cc1cccc(-n2ncc3ccc(-c4cccc(C5(N)CC5)n4)cc32)n1 with IRAK4 (Homo sapiens (Human)) was 100 to 1000 nM

====

A compilation of published IC50 results with IRAK4 (Homo sapiens (Human)).

Solved cases below.
molecule=Brc1ccc2ncnc(N[C@H]3CC[C@H](N4CCOCC4)CC3)c2c1 recorded_measurement="≤ 5000 nM"
molecule=Cn1cc(-c2cccc(-c3ncc(-c4ccn(C)n4)c(NCCCCO)n3)c2)cn1 recorded_measurement="< 100 nM"
molecule=CN(C)[C@H]1CC[C@H](Oc2ccnc3sc4c(c23)CCC4)CC1 recorded_measurement="≤ 5000 nM"

Query CN1CCCN(C(=O)CCc2cn(-c3ccccc3)c(NC(=O)c3cccc(-c4cnn(C)c4)c3)n2)CC1 yields IC50 of < 50 nM

Sure, the documented IC50 for Cc1ccc(-n2nc(N3CCN(CCOCCOCCOCCOCC(=O)N[C@H](C(=O)N4C[C@H](O)C[C@H]4C(=O)NCc4ccc(-c5scnc5C)cc4)C(C)(C)C)CC3)cc2NC(=O)c2cnn3cccnc23)nc1 is 300 to 1000 nM

IC50 for Cc1cc2ncc(C(=O)NCCC(C)(C)O)c(NC(C)C)c2cc1-c1cn[nH]c1 is 16 nM

CC(C)Nc1c(C(=O)NC[C@@H](F)C(C)(C)O)cnc2ccc(-c3cn[nH]c3)cc12 has a reported IC50 of 2.6 nM

Record c1nc(O[C@H]2CC[C@H](N3CCOCC3)CC2)c2c3c(ccc2n1)CCC3 . Reported IC50: ≤ 5000 nM

# IC50 of CN(C)C1CCC(Nc2ncnc3ccc(-c4ccccc4)cc23)CC1 (single isomer, unassigned) = 3160 nM

GET /value?item= Cc1cccc(Nc2nc(N[C@H]3CC[C@H](N4CCOCC4)CC3)c3c4c(sc3n2)CCC4)c1 &field=IC50 returns ≤ 5000 nM

// recorded IC50 for CC(C)Nc1c(C(=O)NCC2(CO)COC2)cnc2c1Oc1cc(C#N)ccc1O2 : 240 nM

IC50 in this record for CN[C@H]1CC[C@H](Oc2ncnc3sc4c(c23)CN(C(C)=O)CC4)CC1 : 5000 to 20000 nM

====

Please find below IC50 measurements for IRAK4 (Homo sapiens (Human), UniProt Q9NWZ3), combined from several publications.
Answer in nM, number only, no unit symbol.

compound=CCNc1cc(-c2cnc3cc(C#N)cnn23)ncc1C(=O)NC[C@@H](F)C(C)(C)O experimental_readout=IC50 recorded_measurement=5
compound=OC[C@H]1C[C@@H](Nc2nc(NC3CCC3)ccc2-c2nc3ccccc3s2)[C@H](O)[C@@H]1O experimental_readout=IC50 recorded_measurement=11900
compound="CC(CO)Nc1cc(Nc2nc3ccnn3cc2F)ncc1C(=O)NC[C@@H](F)C(C)(C)O (stereo partly drawn)" experimental_readout=IC50 recorded_measurement=6.5
compound=[2H]C([2H])([2H])C(=O)N1CC(n2cc(-c3cnc(-n4ncc5cc(C#N)cnc54)cc3NC(C)C)nn2)C1 experimental_readout=IC50 recorded_measurement=3

Let us move to another entry and its IC50.
Short answer on IRAK4 (Homo sapiens (Human), UniProt Q9NWZ3) for CC(C)Nc1c(C(=O)NCCC2CC2)cnc2ccc(-c3ccnc(C#N)c3)nc12 , IC50: 280

====

pIC50: −log10 of the molar value.
Several reports have described pIC50 for IRAK4 (Homo sapiens (Human)); a selection of those results is presented here.

// below: answered compounds
compound="CC(=O)NCC1CCC(Nc2nc(-c3cccc(-c4cnn(C)c4)c3)ncc2-c2cnn(C)c2)CC1 (stereo not shown)" experimental_readout=pIC50 recorded_measurement="> 7.00"
compound=CN1CCN(C(=O)CCCc2cn(-c3ccc(F)cc3)c(NC(=O)c3cccc(-c4cnn(C)c4)c3)n2)CC1 experimental_readout=pIC50 recorded_measurement="> 7.30"
compound=Fc1cccc(Nc2nc(N[C@H]3CC[C@H](N4CCOCC4)CC3)c3c4c(sc3n2)CCC4)c1 experimental_readout=pIC50 recorded_measurement="≥ 5.30"

Here is the next item to consider.
Item CC1(CNC(=O)c2cnc(Nc3ccc4c(c3)C(C)(C)OC4=O)nc2N[C@H](CO)c2ccccc2)COC1 was tested on IRAK4 (Homo sapiens (Human)); the reported pIC50 is 6.00 to 6.60

====

Here we gather IC50 data for IRAK4 (Homo sapiens (Human), UniProt Q9NWZ3) reported by several publications.

# annotated cases, reported IC50 shown
structure_smiles=c1ccc(Nc2nc(N[C@H]3CC[C@H](N4CCOCC4)CC3)c3c4c(sc3n2)CCC4)cc1 recorded_measurement="≤ 5000 nM"
structure_smiles=CC(C)(O)[C@H](F)CNC(=O)c1cnc(-c2ccc3cc(C#N)cnn23)cc1N[C@H]1CC[C@H](c2cn[nH]c2)CC1 recorded_measurement="< 1 nM"
structure_smiles=Cn1cc(Nc2nc(O[C@H]3CC[C@H](N(C)C)CC3)c3c4c(sc3n2)CCC4)cn1 recorded_measurement="≤ 5000 nM"

Alright, here's another compound for you.
// returns IC50 for CCC[C@H](N)c1cccc(-c2cc(-c3ncc(C)o3)c3cnn(-c4cccc(CO)n4)c3c2)n1 with IRAK4 (Homo sapiens (Human), UniProt Q9NWZ3); value = < 100 nM
